Target: Cathepsin K (Homo sapiens, UniProt P43235)
Sequence (P43235 115-329): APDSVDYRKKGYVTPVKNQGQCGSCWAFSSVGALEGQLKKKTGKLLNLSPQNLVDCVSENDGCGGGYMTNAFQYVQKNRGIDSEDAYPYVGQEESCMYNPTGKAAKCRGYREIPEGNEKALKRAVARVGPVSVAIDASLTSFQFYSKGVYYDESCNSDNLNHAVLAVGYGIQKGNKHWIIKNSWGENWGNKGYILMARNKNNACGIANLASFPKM
Experiment: Cathepsin K inhibition, fluorogenic peptide substrate kinetic assay (selectivity)
Type: biochemical
Details: ratio of cathepsin K inhibition constant to cathepsin S inhibition constant
Property measured: Selectivity for Cat. S over Cat. K

Reference set, count: 5
Q: For the molecule `CC(C)[C@@H](CN1CC(C)(C)c2cc(F)ccc21)NC(=O)[C@@H](CC(=O)N1CCOCC1)c1ccc(C(F)(F)F)cc1` , what Selectivity for Cat. S over Cat. K is on record?
Ans: ++ (++, >100)

Q: For the molecule `COc1ccc(NC[C@@H](NC(=O)[C@@H](CC(=O)N2CCOCC2)c2ccc(F)cc2)C(C)C)cn1` , what Selectivity for Cat. S over Cat. K is on record?
Ans: + (+, >10)

Q: For the molecule `C[C@@H](CN1c2ccc(F)cc2CC1(C)C)NC(=O)O[C@@H](CC1CCCCC1)C(=O)N1CCN(S(C)(=O)=O)CC1` , what Selectivity for Cat. S over Cat. K is on record?
Ans: + (+, >10)

Q: For the molecule `C[C@@H](CNc1nc2ccccc2o1)NC(=O)[C@H](CC1CCCCC1)NC(=O)N1CCOCC1` , what Selectivity for Cat. S over Cat. K is on record?
Ans: + (+, >10)

Q: For the molecule `C[C@@H](CNc1ccc(OC(F)(F)F)cc1)NC(=O)[C@@H](CC(=O)N1CCSCC1)CC1CCCCC1` , what Selectivity for Cat. S over Cat. K is on record?
Ans: ++ (++, >100)

Now look at this entry.
Q: For the molecule `C[C@@H](CN1CCc2cc(F)ccc21)NC(=O)[C@@H](CC(=O)N1CCOCC1)CC1CCCCC1` , what Selectivity for Cat. S over Cat. K is on record?
Ans: ++ (++, >100)
